- EXPERIMENTAL TARGET: G-protein coupled bile acid receptor 1 (Homo sapiens, UniProt Q8TDU6)
- Sequence (Q8TDU6 whole entry): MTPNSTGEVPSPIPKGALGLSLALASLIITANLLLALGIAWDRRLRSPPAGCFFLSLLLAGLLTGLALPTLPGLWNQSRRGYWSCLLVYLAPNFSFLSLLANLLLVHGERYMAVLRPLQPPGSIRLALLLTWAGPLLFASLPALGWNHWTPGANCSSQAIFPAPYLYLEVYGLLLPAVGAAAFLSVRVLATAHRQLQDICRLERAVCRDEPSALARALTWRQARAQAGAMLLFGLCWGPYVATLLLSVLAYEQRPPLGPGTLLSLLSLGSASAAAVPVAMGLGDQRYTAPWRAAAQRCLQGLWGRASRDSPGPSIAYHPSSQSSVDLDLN
- TEST: Agonist activity at GPBAR1 in human NCI-H716 cells
Answer each item with its documented pEC50.
Give bare numbers, as −log10 of the molar value.

Field: example entries. Status: answers known.
O=C(O)CNC(=O)CCc1cc(Cl)c(Oc2ncccc2C(=O)N2CCCc3ccccc32)cc1Cl = 7.20
O=C(NCCO)c1cc(Cl)c(Oc2ncccc2C(=O)N2CCCc3ccccc32)cc1Cl = 7.17

For each of the items listed, what is its pEC50?
1. Cc1cc(NC(=O)c2cc(Cl)c(Oc3ncccc3C(=O)N3CCCc4ccccc43)cc2Cl)sc1C(=O)O
2. O=C(O)CCc1cc(Cl)c(Oc2ncccc2C(=O)N2CCCc3ccccc32)cc1Cl

[7.59, 7.33]

====

- EXPERIMENTAL TARGET: Fatty acid-binding protein, heart (Homo sapiens, UniProt P05413)
- Sequence (P05413 whole entry): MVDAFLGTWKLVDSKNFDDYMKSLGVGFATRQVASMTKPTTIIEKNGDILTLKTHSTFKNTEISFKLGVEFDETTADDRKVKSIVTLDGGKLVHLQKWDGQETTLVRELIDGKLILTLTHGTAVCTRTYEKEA
PROPERTY NAME: Ki (nM)
Numbers only, in nM.

Sample CCc1nc2ccc(Cl)cc2c(-c2ccccc2)c1C(=O)O — what was its Ki? 150

====

- TEST: Clearance in human microsomes
- Type: ADME, Microsome
PROPERTY NAME: clearance (µL/min/mg)
Answers are plain numbers, in µL/min/mg.

Reference set (4 entries):
O=C(O)CNC(=O)CCc1cc(Cl)c(Oc2ncccc2C(=O)N2CCCc3ccccc32)cc1Cl = 46
O=C(c1cccnc1Oc1cc(Cl)ccc1Cl)N1CCCc2ccccc21 = 1420
O=C(O)CCc1cc(Cl)c(Oc2ncccc2C(=O)N2CCCc3ccccc32)cc1Cl = 65
Cc1cc(NC(=O)c2cc(Cl)c(Oc3ncccc3C(=O)N3CCCc4ccccc43)cc2Cl)sc1C(=O)O = 48

# query: clearance of entry O=C(NCCO)c1cc(Cl)c(Oc2ncccc2C(=O)N2CCCc3ccccc32)cc1Cl 569

====

What logD was measured for each of the following?
- TEST: physchem
- SETTINGS: octanol/TAPSO buffer, pH 7.4

Here's what some known entries look like.
O=C(O)CCc1cc(Cl)c(Oc2ncccc2C(=O)N2CCCc3ccccc32)cc1Cl = 1.89
O=C(O)CNC(=O)CCc1cc(Cl)c(Oc2ncccc2C(=O)N2CCCc3ccccc32)cc1Cl = 0.35
Cc1cc(NC(=O)c2cc(Cl)c(Oc3ncccc3C(=O)N3CCCc4ccccc43)cc2Cl)sc1C(=O)O = 1.86
O=C(NCCO)c1cc(Cl)c(Oc2ncccc2C(=O)N2CCCc3ccccc32)cc1Cl = 2.8

We now examine a further compound.
Fill in: logD of O=C(c1cccnc1Oc1cc(Cl)ccc1Cl)N1CCCc2ccccc21 is ___ > 3

====

- TEST: Clearance in mouse microsomes
- Type: ADME, Microsome
Hi! Could you tag entries with clearance below 500 µL/min/mg as 1, and those at or above as 0? Much appreciated.

Solved cases below.
O=C(O)CCc1cc(Cl)c(Oc2ncccc2C(=O)N2CCCc3ccccc32)cc1Cl = 1
O=C(c1cccnc1Oc1cc(Cl)ccc1Cl)N1CCCc2ccccc21 = 0
O=C(O)CNC(=O)CCc1cc(Cl)c(Oc2ncccc2C(=O)N2CCCc3ccccc32)cc1Cl = 1

Decide: clearance of Cc1cc(NC(=O)c2cc(Cl)c(Oc3ncccc3C(=O)N3CCCc4ccccc43)cc2Cl)sc1C(=O)O strictly below 500 µL/min/mg? 1

Now consider O=C(NCCO)c1cc(Cl)c(Oc2ncccc2C(=O)N2CCCc3ccccc32)cc1Cl and answer again. 0
